Cited source for all entries: ChEMBL document CHEMBL1201862

# System: UACC-257
# Procedure text: NCI tumour cell line growth inhibition, 48 h
Calls of active or inactive are those of the source. No stated cut-off is given here; in the data, active = GI50 up to about 1.1 µM and inactive = higher.
Readings of GI50 for the listed compounds

Cc1ccc(C)c2c1CC(Cc1ccccc1C(=O)O)C2=O (centres undefined); > 100 µM (inactive)
C/C(=N\NC(=O)/C(C#N)=C\c1ccc(N(CCC#N)CCC#N)cc1)c1ccccc1; > 10 µM (inactive)
Nc1ccc(C(=O)NN2C(=O)C(Cl)C2c2cc(Br)ccc2O)cc1 (centres undefined); > 100 µM (inactive)
COc1cccc2c1c1ccc3c(c1n2C)C(=O)C=CC3=O; 14.9 µM (inactive)
O=C(CCCn1ccnc1[N+](=O)[O-])NCCn1cnc([N+](=O)[O-])c1; > 100 µM (inactive)

Query: Supply GI50 value. Item: C/C(CC(=O)Nc1ccc(Cl)cc1)=N\NC(N)=S
Reply: 21.9 µM (inactive)

Query: Supply GI50 value. Item: CO/[N+]([O-])=C\C(=O)N/C=C/C(=O)O
Reply: > 100 µM (inactive)

Query: Supply GI50 value. Item: C=CC[C@@]1(C#N)C[C@H](C[C@]2(C#N)C[C@H](CCl)OC(C)(C)O2)OC(C)(C)O1
Reply: 94.8 µM (inactive)

Query: Supply GI50 value. Item: CC1(C)OCC(C2CCC3(C)C4=CCC5C(C)(C)C(O)CCC5(C)C4CCC23C)CC(O)C1O (centres undefined)
Reply: 12.2 µM (inactive)

====

# Test system: UACC-62
# Procedure text: NCI tumour cell line growth inhibition, 48 h
Activity calls are given as the source filed them. No stated cut-off is given here; in the data, active = GI50 up to about 1.1 µM and inactive = higher.
Readings of GI50 for the listed molecules

OCC(O)COCn1cc(Cn2ncc3c(SCc4ccccc4)ncnc32)nn1 (stereo not given); > 100 µM (inactive)
Cc1ccc(S(=O)(=O)OC2C(O)C(O)OC2C(c2cc(O)c3c(c2O)C(=O)c2ccccc2C3=O)c2cc(O)c3c(c2O)C(=O)c2ccccc2C3=O)cc1 (stereo not given); 4.38 µM (inactive)
COC1(C)/C=N/CC(C)(C)NC(=O)C(C)(OC)/C=N/CC(C)(C)NC1=O (stereo not given); > 10 µM (inactive)
CO/[N+]([O-])=C\C(=O)N/C=C/C(=O)O; > 100 µM (inactive)

Below: the item to evaluate.
Query: Fill in: GI50 on UACC-62, entry CC(=O)N1N=C(c2ccc3ccccc3c2O)CC1c1ccc(Cl)cc1Cl (stereo not given)
Reply: > 100 µM (inactive)

====

# System: IGROV-1
# Procedure text: NCI tumour cell line growth inhibition, 48 h
Activity calls are given as the source filed them. Cut-off read from the data, not from the text of the source: active = GI50 up to about 1.1 µM and inactive = higher.
Readout: GI50

// known answers, use as guide
COc1ccc(OC/C(N)=N/NC(=O)c2ccncc2)cc1; > 100 µM (inactive)
O=C(/C=C/c1ccc(O)c(O)c1)OCCCOC(=O)/C=C/c1ccc(O)c(O)c1; 13.3 µM (inactive)
C=C(c1ccccc1)C1(O)CCCCC1N (centres undefined); > 100 µM (inactive)
CCOC(=O)NC(OC)(C(F)(F)F)C(F)(F)F; > 100 µM (inactive)

Query: Supply GI50 value. Item: CC(=O)OCC1OC(OCCCOP(=S)(OCCC#N)OCC2OC(n3ccc(N)nc3=O)C(OC(=O)c3ccccc3)C2OC(=O)c2ccccc2)C(OC(C)=O)C(OC(C)=O)C1OC(C)=O (centres undefined)
Reply: > 100 µM (inactive)

Query: Supply GI50 value. Item: CCN1C[C@]2(COC)[C@H](O)C[C@H](OC)[C@]34C1[C@H]([C@H](OC)[C@H]23)[C@]1(OC(C)=O)[C@H]2[C@@H](OC(=O)c3ccccc3)[C@](O)(C[C@H]24)[C@@H](OC)[C@@H]1O
Reply: > 100 µM (inactive)

Query: Supply GI50 value. Item: Nc1nc(Nc2ccc(Cl)cc2)sc1C(=O)c1cc2ccccc2oc1=O
Reply: 56.6 µM (inactive)

Query: Supply GI50 value. Item: CCOC(=O)NN(C(=O)OCC)C(=C(C1=CCCCC1)N1CCOCC1)N(NC(=O)OCC)C(=O)OCC
Reply: > 100 µM (inactive)

Query: Supply GI50 value. Item: COc1cc2c(c3oc4c(O)cccc4c(=O)c13)CC(C(C)(O)CO)O2 (centres undefined)
Reply: 41.7 µM (inactive)
